Examples of sequences with documented Kd follow.
Biological target: HLA-B*57:01
Assay: IEDB peptide-MHC binding, purified MHC/competitive/fluorescence; filed as Kd, often an IC50 or EC50 that approximates it; bounds were set here for any values at or beyond the usual limits of such assays
Conditions: source organism: Zaire ebolavirus

[
  {
    "Chain": "NFFHASLAY",
    "Kd": "≥ 20 µM"
  },
  {
    "Chain": "TSACGIFLK",
    "Kd": "≥ 20 µM"
  },
  {
    "Chain": "TPSGKRLQI",
    "Kd": "≥ 20 µM"
  }
]

====

Biological target: HLA-A*11:01
Assay: IEDB peptide-MHC binding, purified MHC/competitive/radioactivity; filed as Kd, often an IC50 or EC50 that approximates it; bounds were set here for any values at or beyond the usual limits of such assays
Details: source organism: SARS coronavirus Tor2
Quantity name: log10(Kd) (log10 of the value in nM)

[
  {
    "Chain": "AVVCYNSNY",
    "log10(Kd)": 2.84
  },
  {
    "Chain": "CLAVHECFVK",
    "log10(Kd)": 3.54
  },
  {
    "Chain": "VLDMCAALK",
    "log10(Kd)": 1.65
  },
  {
    "Chain": "KVAGFAKFLK",
    "log10(Kd)": 1.03
  },
  {
    "Chain": "LILCFTIKR",
    "log10(Kd)": 2.36
  },
  {
    "Chain": "WVLAYMLFTK",
    "log10(Kd)": 1.51
  },
  {
    "Chain": "RAIMATIQR",
    "log10(Kd)": 1.96
  },
  {
    "Chain": "SAAAYFVGY",
    "log10(Kd)": 1.52
  },
  {
    "Chain": "LLRALRLTK",
    "log10(Kd)": 3.59
  },
  {
    "Chain": "QLPQGTTLPK",
    "log10(Kd)": 2.60
  },
  {
    "Chain": "KQIRSAAKK",
    "log10(Kd)": 1.87
  },
  {
    "Chain": "VAFELWAKR",
    "log10(Kd)": 3.51
  },
  {
    "Chain": "GFAAYNRYR",
    "log10(Kd)": 3.82
  },
  {
    "Chain": "IISDMYDPR",
    "log10(Kd)": 2.09
  },
  {
    "Chain": "KFYGPFVDR",
    "log10(Kd)": 3.15
  },
  {
    "Chain": "KQMYKTPTLK",
    "log10(Kd)": 1.24
  },
  {
    "Chain": "SICSTMTNR",
    "log10(Kd)": 1.11
  },
  {
    "Chain": "GVAPGTAVLR",
    "log10(Kd)": 2.22
  },
  {
    "Chain": "SLLKTHRMCK",
    "log10(Kd)": 1.59
  },
  {
    "Chain": "TQSRDLEDFK",
    "log10(Kd)": 4.10
  },
  {
    "Chain": "AFSLDVSEK",
    "log10(Kd)": 3.55
  },
  {
    "Chain": "GALDTTSYR",
    "log10(Kd)": 1.42
  }
]
